# Tested on: X-box-binding protein 1 (Homo sapiens) (UniProt P17861)
# Sequence (P17861 whole entry, looked up): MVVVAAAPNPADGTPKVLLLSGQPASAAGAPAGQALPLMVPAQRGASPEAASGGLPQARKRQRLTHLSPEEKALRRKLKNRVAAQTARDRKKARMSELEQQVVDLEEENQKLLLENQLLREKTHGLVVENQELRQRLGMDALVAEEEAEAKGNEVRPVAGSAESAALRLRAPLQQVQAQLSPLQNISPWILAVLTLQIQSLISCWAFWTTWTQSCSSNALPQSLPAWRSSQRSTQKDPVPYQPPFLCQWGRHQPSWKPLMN
# Experiment: ATG_Xbp1_CIS: Attagene CIS-FACTORIAL HepG2 Assay for human X-box Binding Protein 1 (XBP1) (AID 2282972)
# Conditions: HepG2 XBP1 cis-element reporter, Attagene multiplex; actives raise or lower the signal
Activity calls are given as the source filed them. The calls were made as follows: active = hit-call score of the fitted dose curve at least 0.9, where 1 is the maximum; inactive = score below 0.9.
Metric name: AC50

CC(=O)/C=C/C1=C(C)CCCC1(C)C: inactive
O=[N+]([O-])c1cc(C(F)(F)F)ccc1Cl: inactive
CCOC(=O)c1ccccc1OC: inactive
CCC(O)CO (stereo not given): inactive
Cc1ccc2n[nH]nc2c1: inactive
CC(C)[C@H]1CC[C@@H](C)CC1=O: inactive
Nc1ccc(S(N)(=O)=O)cc1: inactive
OC[C@H]1O[C@H](O[C@]2(CCl)O[C@H](CCl)[C@@H](O)[C@@H]2O)[C@H](O)[C@@H](O)[C@H]1Cl: inactive
COc1cc(C(C)(C)C)c(O)c(C(C)(C)C)c1: inactive
CCCCCCCCCCCCCC(=O)O: inactive

Req: Would you kindly share the measured AC50 for CN(C)CCCN ?
Resp: inactive

Req: Proceed to CC(C)(C)NC(N)=O
Resp: inactive

Req: Proceed to CNCCO
Resp: inactive

Req: Proceed to CC(=O)OCC=Cc1ccccc1
Resp: inactive

Req: Proceed to C=CC(C)(O)CCC=C(C)CCC=C(C)C (stereo not given)
Resp: 120 µM (active)

----------
# Read-out: Urokinase-type plasminogen activator receptor (uPAR), PLAUR (gene 5329)
# Experiment: BSK_4H_uPAR: BioMAP Diversity Plus: 4H Assay for Urokinase-type plasminogen activator receptor (uPAR) Biomarker Activity (AID 2283030)
# Conditions: primary human endothelial cells (HUVEC); actives raise or lower the signal
The source made the active and inactive calls. The calls were made as follows: active = hit-call score of the fitted dose curve at least 0.9, where 1 is the maximum; inactive = score below 0.9.
Outcome (select one): active, inactive

CCc1c(C)cc(N)c(CC)c1N: inactive
NCCNCCN: inactive
CC1CCC(C(C)CS)CC1S (centres undefined): active

Req: Short answer needed: outcome of this test for CCCCCCCCCC=O ?
Resp: inactive

Req: Proceed to CCCCC(CC)COCCC#N (centres undefined)
Resp: inactive

----------
# Experiment: ATG_CRE_CIS: Attagene CIS-FACTORIAL HepG2 Assay for human cAMP Responsive Element (CRE) binding protein 3 (AID 2282926)
# Conditions: HepG2 CRE cis-reporter, Attagene multiplexed mRNA; actives raise or lower the signal
Active and inactive are the calls of the source. How the source made its calls: active means hit-call score of the fitted dose curve at least 0.9, where 1 is the maximum; inactive means score below 0.9.
Outcome (select one): true for active, false for inactive

NC(N)=NC(=O)c1nc(Cl)c(N)nc1N: false
CN(C)C(=N)N=C(N)N: false
CCC(C)CCCC(C)(C)O (stereo not given): false
O=C(O)c1ccc(C(=O)O)cc1: false
C=CC(C)(CCC=C(C)C)OC=O (stereo not given): false
Cc1ccc(C(C)C)cc1O: false
Nc1cc([N+](=O)[O-])ccc1O: false
CCCCCCCCCCCCCCCC(=O)O: false

Req: Short answer needed: outcome of this test for Clc1sc(Cl)c(Cl)c1Cl ?
Resp: false

Req: Proceed to c1ccc2c(c1)c1cccc3ccc4cccc2c4c31
Resp: false

Req: Proceed to CCCCCCCCCCN
Resp: false

----------
# Read-out: Tumor necrosis factor (Homo sapiens)
# Experiment: BSK_BT_xTNFa: BioMAP Diversity Plus: BT Assay for Tumor necrosis factor alpha (TNF-alpha) Biomarker Activity (AID 2284230)
# Conditions: primary human B cells with PBMC
Activity calls are given as the source filed them. Rule for the calls: active = hit-call score of the fitted dose curve at least 0.9, where 1 is the maximum; inactive = score below 0.9.
Outcome (select one): True = active, False = inactive

O=[N+]([O-])c1cc(C(F)(F)F)ccc1Cl: False
O=C1CCCCCCCCCCCCCCO1: True

Req: Short answer needed: outcome of this test for O=P(c1ccccc1)(c1ccccc1)c1ccccc1 ?
Resp: False

Req: Proceed to CC1CCC(C(C)CS)CC1S (stereo unspecified)
Resp: False
